# Species on record: Rattus norvegicus
# assay.notes: DrugMatrix - Regimen: Daily Repeat
# Assay type: toxicity, organism-based, Sprague-Dawley
# Design: regimen Daily Repeat, gender Male, age 6-8 weeks
# condition.description: in vivo, po, 0 mg/kg, 120 h, tissue Blood, route oral GAVAGE, dose level Control, time 5 day, vehicle .5 % CMC
reported.endpoint: LYMPHOCYTE (%)
Report the value in % with no unit label.

Would you please look over these solved cases?
ClC(Cl)Br; 85.33
CCn1cc(C(=O)O)c(=O)c2cc(F)c(N3CCNCC3)cc21; 93
Cc1ccc(/N=C/N(C)/C=N/c2ccc(C)cc2C)c(C)c1; 93
C1CCC(C(CC2CCCCN2)C2CCCCC2)CC1 (centres undefined); 79.92
CCOP(=S)(OCC)Oc1nc(Cl)c(Cl)cc1Cl; 85.9

Switching to the query record.
Q: Consider the compound N=C(N)NCCN1CCCCCCC1 . State its measured LYMPHOCYTE.
A: 83.33

* * *

# Species: Rattus norvegicus
# assay.notes: DrugMatrix - Regimen: Daily Repeat
# Type: toxicity, organism-based, Sprague-Dawley
# Set-up: regimen Daily Repeat, gender Male, age 6-8 weeks
# condition.description: in vivo, iv, 0 mg/kg, 120 h, tissue Blood, dose level Control, time 5 day, vehicle 100 % SALINE
Starred links: 1 amine or outer side, 2 acyl side, 3 side chain; linkers in the order of their positions; H or OH if unused. Positions of bridges follow the written chain, without caps; N, C: chain ends. Non-standard residues stand in square brackets, D forms with d. Residues, ends and D or L forms follow the SMILES beside them. Chains are numbered I, II in the order given. Actinocin(9to1) = Cc1c2oc3c(C)ccc(C(=O)[*:1])c3nc-2c(C(=O)[*:2])c(N)c1=O; NMeV = CN[C@H](C(=O)O)C(C)C; Sar = CNCC(=O)O
reported.endpoint: NEUTROPHIL (%)
Entry rule: numbers only, all in %.

Consider the worked cases shown below.
COc1cc2c3cc1Oc1cc(ccc1O)C[C@@H]1c4c(cc(OC)c(O)c4Oc4ccc(cc4)C[C@@H]3N(C)CC2)CC[N+]1(C)C.[Cl-]; 8.17
Cc1c2oc3c(C)ccc(C(=O)N[C@@H]4C(=O)N[C@H](C(C)C)C(=O)N5CCC[C@H]5C(=O)N(C)CC(=O)N(C)[C@@H](C(C)C)C(=O)O[C@@H]4C)c3nc-2c(C(=O)N[C@@H]2C(=O)N[C@H](C(C)C)C(=O)N3CCC[C@H]3C(=O)N(C)CC(=O)N(C)[C@@H](C(C)C)C(=O)O[C@@H]2C)c(N)c1=O [DACTINOMYCIN] (I: T[dV]P[Sar][NMeV] / II: T[dV]P[Sar][NMeV]; ester I:1-I:C, II:1-II:C; linker I:N-II:N via Actinocin(9to1)); 10.17
CC[C@]1(O)C[C@H]2CN(CCc3c([nH]c4ccccc34)[C@@](C(=O)OC)(c3cc4c(cc3OC)N(C=O)[C@H]3[C@@](O)(C(=O)OC)[C@H](OC(C)=O)[C@]5(CC)C=CCN6CC[C@]43[C@@H]65)C2)C1; 9.33

Consider the record given below.
Q: Look up NEUTROPHIL of Cc1ccc(N(CC2=NCCN2)c2cccc(O)c2)cc1 and report it.
A: 7.83

* * *

# Species: Rattus norvegicus
# assay.notes: DrugMatrix - Regimen: Daily Repeat
# Format: toxicity, organism-based, Sprague-Dawley
# Parameters: regimen Daily Repeat, gender Male, age 6-8 weeks
# condition.description: in vivo, po, 0 mg/kg, 120 h, tissue Plasma, route oral GAVAGE, dose level Control, time 5 day, […]
Form field: LACTATE DEHYDROGENASE (one value per entry).
Respond numerically; units are u/L and should not be typed.

O=c1oc2ccccc2c(O)c1Cc1c(O)c2ccccc2oc1=O [DICUMAROL]; 111.33
C[C@@H]1CN(c2c(F)c(N)c3c(=O)c(C(=O)O)cn(C4CC4)c3c2F)C[C@H](C)N1 [SPARFLOXACIN]; 1594
CC(C)C(=O)Nc1ccc([N+](=O)[O-])c(C(F)(F)F)c1 [FLUTAMIDE]; 104.83
Cc1oncc1C(=O)Nc1ccc(C(F)(F)F)cc1 [LEFLUNOMIDE]; 92.33
CCC(C)n1ncn(-c2ccc(N3CCN(c4ccc(OCC5COC(Cn6cncn6)(c6ccc(Cl)cc6Cl)O5)cc4)CC3)cc2)c1=O (stereo unspecified) [ITRACONAZOLE]; 290.67

Now for a further molecule.
Q: In one line, give reported LACTATE DEHYDROGENASE of the entry O=NN(CCCl)C(=O)NC1CCCCC1 [LOMUSTINE] .
A: 1594
